- ASSAY SYSTEM: T1, Activin A (UniProt P08476 311-426)
- T1 sequence (looked up): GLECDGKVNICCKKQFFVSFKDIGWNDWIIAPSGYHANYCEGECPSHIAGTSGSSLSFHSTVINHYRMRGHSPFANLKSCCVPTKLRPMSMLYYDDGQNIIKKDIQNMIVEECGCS
- ASSAY OVERVIEW: SPR (Biacore 8K), Fc protein captured on anti-human IgG, ligand injected
Give Kd for every item shown.
Give a bare numeral; the unit nM is implied.

I'd like to know its Kd. The binder in question is ActRIIA-B7 (SEQ ID NO: 100) chimera-Fc protein (Fc fusion, Tested as chimera-Fc protein; not shown: linker (if any) and Fc domain) GAILGRSETQECLFFNANWEKDRTNQTGVEPCYGDKDKRRHCFATWKNISGSIEIVKQGCWLDDINCYDRTDCVEKKDSPEVYFCCCEGNMCNERFTHLPEMEVTQPTS
0.024

Suppose we examine the binder ActRIIB-A2 (SEQ ID NO: 121) chimera-Fc protein (Fc fusion, Tested as chimera-Fc protein; not shown: linker (if any) and Fc domain) GRGEAETRECIYYNANWEKDRTNQSGLERCEGEQDKRLHCYASWRNSSGTIELVKKGCWLDDFNCYDRQECVATEENPQVYFCCCEGNFCNERFTHLPEAGGPEVTYEPPPTAPT ; what Kd value has been reported?
0.0347

Entry ActRIIB-A8 (SEQ ID NO: 126) chimera-Fc protein (Fc fusion, Tested as chimera-Fc protein; not shown: linker (if any) and Fc domain) GRGEAETRECIYYNANWELERTNQSGLERCEGEQDKRLHCYASWRNSSGTIELVKKGCWLDDFNCYDRQECVATEENPQVYFCCCEGNFCNERFTHLPEMEVTQPTS has what Kd?
0.0442
